Sourced from patent US4604386A

Method Notes: in vivo
Condition Context: rat, po, 20 mg/kg

[
  {
    "Molecule": "C#CCOC1=C(C(=O)O)N2C(=O)[C@@H](NC(=O)[C@H](N)c3ccccc3)[C@H]2SC1 [Test Compound 1]",
    "concentration at 4 h": "14700 ng/mL"
  }
]

====

Method Notes: in vivo
Condition Context: mouse, po, 20 mg/kg
Parameter Measured: concentration at 20 min

[
  {
    "Compound Structure": "C#CCOC1=C(C(=O)O)N2C(=O)[C@@H](NC(=O)[C@H](N)c3ccccc3)[C@H]2SC1",
    "Parameter Measured": "concentration at 20 min",
    "Result": "23100 ng/mL"
  }
]

====

Method Notes: in vivo
Condition Context: rat, po, 20 mg/kg

[
  {
    "Compound": "C#CCOC1=C(C(=O)O)N2C(=O)[C@@H](NC(=O)[C@H](N)c3ccccc3)[C@H]2SC1 [Test Compound 1]",
    "concentration at 2 h [ng/mL]": 19300
  }
]

====

Method Notes: in vivo
Condition Context: mouse, po, 20 mg/kg

[
  {
    "Molecule": "C#CCOC1=C(C(=O)O)N2C(=O)[C@@H](NC(=O)[C@H](N)c3ccccc3)[C@H]2SC1 [Test Compound 1]",
    "concentration at 40 min": "12400 ng/mL"
  }
]

====

Method Notes: in vivo
Condition Context: mouse, po, 20 mg/kg
Parameter Measured: concentration at 2 h (ng/mL)

[
  {
    "Compound Structure": "C#CCOC1=C(C(=O)O)N2C(=O)[C@@H](NC(=O)[C@H](N)c3ccccc3)[C@H]2SC1",
    "Parameter Measured": "concentration at 2 h",
    "Result Number": 850
  }
]

====

Method Notes: in vivo
Condition Context: rat, po, 20 mg/kg

[
  {
    "Compound": "C#CCOC1=C(C(=O)O)N2C(=O)[C@@H](NC(=O)[C@H](N)c3ccccc3)[C@H]2SC1 [Test Compound 1]",
    "concentration at 20 min [ng/mL]": 3900
  }
]

====

Method Notes: in vivo
Condition Context: mouse, po, 20 mg/kg
Parameter Measured: concentration at 1 h (ng/mL)

[
  {
    "Compound Structure": "C#CCOC1=C(C(=O)O)N2C(=O)[C@@H](NC(=O)[C@H](N)c3ccccc3)[C@H]2SC1",
    "Result Unit": "ng/mL",
    "Result Number": 4000
  }
]

====

Method Notes: in vivo
Condition Context: rat, po, 20 mg/kg

[
  {
    "Molecule": "C#CCOC1=C(C(=O)O)N2C(=O)[C@@H](NC(=O)[C@H](N)c3ccccc3)[C@H]2SC1 [Test Compound 1]",
    "Result Unit": "ng/mL",
    "concentration at 1 h": 15900
  }
]
